system: E.coli S30 extract (bacterial protein synthesis); assay: E.coli S30 extract: inhibition of bacterial protein synthesis (luciferase); format: biochemical; conditions: 37° C. for 1 hour
Counter-ions that a name gives are not always drawn.
Below, each entry is listed alongside its reported IC50.

Example compounds with recorded IC50:
>>> result("CC(C)(N)C(=O)N1CCN(C(=O)Nc2ccn(-c3ccc4c(c3)CCC(N3CCCC(N)CC3)C4)c(=O)n2)CC1 (centres unmarked) [Compound 43, Hydrochloride Salt]")
"< 0.5 µM"
>>> result("CC(C)(N)C(=O)N1CCN(C(=O)Nc2ccn(-c3ccc4c(c3)CCC(N[C@H]3CC[C@@H](N)C3)C4)c(=O)n2)CC1 (single isomer, unassigned) [Compound 34, Hydrochloride Salt]")
"< 0.5 µM"
>>> result("CC(C)(N)C(=O)N1CCN(C(=O)Nc2ccn(-c3ccc4c(c3)CCC(NC[C@H]3C[C@@H](N)C3)C4)c(=O)n2)CC1 (some centres unmarked) [Compound 32, Hydrochloride Salt]")
"< 0.5 µM"
>>> result("CCN(C1CCc2cc(-n3ccc(NC(=O)N4CCN(C(=O)C(C)(C)N)CC4)nc3=O)ccc2C1)[C@H]1CC[C@H](N)C1 (some centres unmarked) [Compound 20, Hydrochloride Salt]")
"< 0.5 µM"
>>> result("CC(C)(N)C(=O)N1CCN(C(=O)Nc2ccn(-c3ccc4c(c3)CCC(N3CC(N)C3)C4)c(=O)n2)CC1 (centres unmarked) [Compound 39, Hydrochloride Salt]")
"0.5 to 1 µM"

*Q* Requested read-out: IC50. Entry: CC(C)(N)C(=O)N1CCN(C(=O)Nc2ccn(-c3ccc4c(c3)CCN(C3CCC(N)CC3)C4)c(=O)n2)CC1 (centres unmarked) [Compound 35, Hydrochloride Salt]
*A* < 0.5 µM

*Q* Requested read-out: IC50. Entry: CC(C)(N)C(=O)N1CCN(C(=O)Nc2ccn(-c3ccc4c(c3)CCC(N3C[C@@H]5[C@@H](CN)[C@@H]5C3)C4)c(=O)n2)CC1 (some centres unmarked) [Compound 3, Hydrochloride Salt]
*A* < 0.5 µM

*Q* Requested read-out: IC50. Entry: COC(=O)N[C@H]1CC[C@H](NC2CCc3cc(-n4ccc(NC(=O)N5CCN(C(=O)C(C)(C)N)CC5)nc4=O)ccc3C2)C1 (some centres unmarked) [Compound 45, Hydrochloride Salt]
*A* ≥ 1 µM

*Q* Requested read-out: IC50. Entry: CC(C)(N)C(=O)N1CCN(C(=O)Nc2ccn(-c3ccc4c(c3)OCC(N3CCCC(N)CC3)C4)c(=O)n2)CC1 (centres unmarked)
*A* 0.5 to 1 µM

*Q* Requested read-out: IC50. Entry: CC(C)(N)C(=O)N1CCN(C(=O)Nc2ccn(-c3ccc4c(c3)CCC(NC[C@H]3C[C@H](N)C3)C4)c(=O)n2)CC1 (some centres unmarked) [Compound 31, Hydrochloride Salt]
*A* < 0.5 µM

*Q* Requested read-out: IC50. Entry: CN(C1CCc2cc(-n3ccc(NC(=O)N4CCN(C(=O)C(C)(C)N)CC4)nc3=O)ccc2C1)[C@H]1CC[C@H](N)CC1 (some centres unmarked) [Compound 15, hydrochloride salt]
*A* < 0.5 µM
